Attribute: ALKALINE PHOSPHATASE
# Species: Rattus norvegicus
# Test details: DrugMatrix - Regimen: Daily Repeat
# Type: toxicity, organism-based, Sprague-Dawley
# Parameters: regimen Daily Repeat, gender Male, age 6-8 weeks
# Cond: in vivo, po, 0 mg/kg, 72 h, tissue Plasma, route oral GAVAGE, dose level Control, time 3 day, vehicle 100 % WATER
Give the value, in units of u/L, as a plain number.

Observe how each entry below is paired with its result.
Query `C[C@]12C=CC(=O)C=C1CC[C@@H]1[C@@H]2[C@@H](O)C[C@@]2(C)[C@H]1CC[C@]2(O)C(=O)CO` yields ALKALINE PHOSPHATASE of 335

Query CCN(CC)CCNC(=O)c1cc(S(C)(=O)=O)ccc1OC [TIAPRIDE] yields ALKALINE PHOSPHATASE of 404.33

Query CC(C)NCC(O)c1ccc(NS(C)(=O)=O)cc1 (stereo not given) yields ALKALINE PHOSPHATASE of 372

Query `Cc1ccc(NC(=O)c2ccc(CN3CCN(C)CC3)cc2)cc1Nc1nccc(-c2cccnc2)n1` yields ALKALINE PHOSPHATASE of 404.33

Next:
Query CN(C)CCOC(c1ccccc1)c1ccccc1 [DIPHENHYDRAMINE] yields ALKALINE PHOSPHATASE of 346.5

###

# Organism: Rattus norvegicus
# Test details: DrugMatrix - Regimen: Daily Repeat
# Format: toxicity, organism-based, Sprague-Dawley
# Set-up: regimen Daily Repeat, gender Male, age 6-8 weeks
# Cond: in vivo, po, 50 mg/kg, 72 h, tissue Plasma, route oral GAVAGE, dose level Low, time 3 day, vehicle .5 % CMC
Attribute: CHLORIDE
Give the value, in units of MEQ/L, as a plain number.

Observe how each entry below is paired with its result.
Query NC1CCN(c2nc3c(cc2F)c(=O)c(C(=O)O)cn3-c2ccc(F)cc2F)C1 (centres undefined) yields CHLORIDE of 106.33

Query `CN(C)[C@@H]1C(O)=C(C(N)=O)C(=O)[C@@]2(O)C(O)=C3C(=O)c4c(O)ccc(Cl)c4[C@@](C)(O)[C@H]3C[C@@H]12` yields CHLORIDE of 103.67

Further cases:
Query Cc1cccc(C)c1OCC(C)N (centres undefined) yields CHLORIDE of 103.33

Query CCN1CCC[C@H]1CNC(=O)c1cc(S(N)(=O)=O)ccc1OC [LEVOSULPIRIDE] yields CHLORIDE of 106.33

###

# Species: Rattus norvegicus
# Test details: DrugMatrix - Regimen: Daily Repeat
# Assay type: toxicity, organism-based, Sprague-Dawley
# Set-up: regimen Daily Repeat, gender Male, age 6-8 weeks
# Cond: in vivo, po, 50 mg/kg, 72 h, tissue Blood, route oral GAVAGE, dose level Low, time 3 day, vehicle .5 % CMC
Attribute: MEAN CORPUSCULAR HEMOGLOBIN
Give the value, in units of pg, as a plain number.

Observe how each entry below is paired with its result.
Query `CN(C)[C@@H]1C(O)=C(C(N)=O)C(=O)[C@@]2(O)C(O)=C3C(=O)c4c(O)ccc(Cl)c4[C@@](C)(O)[C@H]3C[C@@H]12` yields MEAN CORPUSCULAR HEMOGLOBIN of 24.57

Query NC1CCN(c2nc3c(cc2F)c(=O)c(C(=O)O)cn3-c2ccc(F)cc2F)C1 (centres undefined) yields MEAN CORPUSCULAR HEMOGLOBIN of 20.4

Query Cc1cccc(C)c1OCC(C)N (centres undefined) yields MEAN CORPUSCULAR HEMOGLOBIN of 22.63

Next:
Query CCN1CCC[C@H]1CNC(=O)c1cc(S(N)(=O)=O)ccc1OC [LEVOSULPIRIDE] yields MEAN CORPUSCULAR HEMOGLOBIN of 24.6

###

Attribute: LEUKOCYTE COUNT
# Species: Rattus norvegicus
# Test details: DrugMatrix - Regimen: Daily Repeat
# Type: toxicity, organism-based, Sprague-Dawley
# Set-up: regimen Daily Repeat, gender Male, age 6-8 weeks
# Cond: in vivo, po, 0 mg/kg, 72 h, tissue Blood, route oral GAVAGE, dose level Control, time 3 day, vehicle .5 % CMC

Query Cn1c(=O)c2c(ncn2CC(O)CO)n(C)c1=O (stereo not given) yields LEUKOCYTE COUNT of 15.93 x10E3/uL

Query CC(C(=O)O)c1ccc2oc(-c3ccc(Cl)cc3)nc2c1 (stereo not given) yields LEUKOCYTE COUNT of 8.79 x10E3/uL

Query `COc1cc2nc(N3CCN(C(=O)c4ccco4)CC3)nc(N)c2cc1OC` yields LEUKOCYTE COUNT of 15.25 x10E3/uL

Query `COC1=C(OC)C(=O)C(CCCCCCCCCCO)=C(C)C1=O` yields LEUKOCYTE COUNT of 13.57 x10E3/uL

Query `CN/C(=N/CCSCc1nc[nH]c1C)NC#N` yields LEUKOCYTE COUNT of 13.57 x10E3/uL

Further cases:
Query `C[C@H]1O[C@@H](n2cc(F)c(=O)[nH]c2=O)[C@H](O)[C@@H]1O` yields LEUKOCYTE COUNT of 13.57 x10E3/uL

Query O=C1Nc2ccc(Cl)cc2C(c2ccccc2Cl)=NC1O (stereo not given) yields LEUKOCYTE COUNT of 15.25 x10E3/uL

Query `CN(C/C=C/C#CC(C)(C)C)Cc1cccc2ccccc12` yields LEUKOCYTE COUNT of 13 x10E3/uL

Query `COc1ccc(C2C(=O)c3ccccc3C2=O)cc1` yields LEUKOCYTE COUNT of 11.54 x10E3/uL

Query `Clc1ccccc1CN1CCc2sccc2C1` yields LEUKOCYTE COUNT of 11.54 x10E3/uL

###

# Species on record: Rattus norvegicus
# Test details: DrugMatrix - Regimen: Daily Repeat
# Assay type: toxicity, organism-based, Sprague-Dawley
# Set-up: regimen Daily Repeat, gender Male, age 6-8 weeks
# Cond: in vivo, po, 0 mg/kg, 120 h, tissue Blood, route oral GAVAGE, dose level Control, time 5 day, vehicle .5 % CMC
Property name: LYMPHOCYTE (%)
Give the value, in units of %, as a plain number.

Query O=C1C(CC[S+]([O-])c2ccccc2)C(=O)N(c2ccccc2)N1c1ccccc1 (stereo not given) yields LYMPHOCYTE of 90.83

Query `NCCCC(O)(P(=O)(O)O)P(=O)(O)O` yields LYMPHOCYTE of 87.17

Query `COC1=C(OC)C(=O)C(CCCCCCCCCCO)=C(C)C1=O` yields LYMPHOCYTE of 88.33

Query `COc1cc2nc(N3CCN(C(=O)c4ccco4)CC3)nc(N)c2cc1OC` yields LYMPHOCYTE of 90.83

Next:
Query `CCN(CC)CCOc1ccc(/C(=C(/Cl)c2ccccc2)c2ccccc2)cc1` yields LYMPHOCYTE of 90.5

###

# Organism: Rattus norvegicus
# Test details: DrugMatrix - Regimen: Daily Repeat
# Type: toxicity, organism-based, Sprague-Dawley
# Design: regimen Daily Repeat, gender Male, age 6-8 weeks
# Cond: in vivo, ip, 40 mg/kg, 120 h, tissue Blood, route intraperitoneal, dose level High, time 5 day, vehicle 100 % SALINE
Property name: ABSOLUTE EOSINOPHIL
// unit must come after the numeric part

Query `GENTAMICIN` yields ABSOLUTE EOSINOPHIL of 74 cells/µL

###

# Organism: Rattus norvegicus
# Test details: DrugMatrix - Regimen: Daily Repeat
# Format: toxicity, organism-based, Sprague-Dawley
# Parameters: regimen Daily Repeat, gender Male, age 6-8 weeks
# Cond: in vivo, po, 0 mg/kg, 120 h, tissue Plasma, route oral GAVAGE, dose level Control, time 5 day, vehicle 100 % WATER
Property name: TOTAL PROTEIN (G/DL)
Give the value, in units of G/DL, as a plain number.

Observe how each entry below is paired with its result.
Query `CS(=O)(=O)c1ccc([C@@H](O)[C@@H](CO)NC(=O)C(Cl)Cl)cc1` yields TOTAL PROTEIN of 6.12

Query `C[C@]12C=CC(=O)C=C1CC[C@@H]1[C@@H]2[C@@H](O)C[C@@]2(C)[C@H]1CC[C@]2(O)C(=O)CO` yields TOTAL PROTEIN of 6

Query CC(C)NCC(O)c1ccc(NS(C)(=O)=O)cc1 (stereo not drawn) yields TOTAL PROTEIN of 6.3

Query CCN(CC)CCNC(=O)c1cc(S(C)(=O)=O)ccc1OC [TIAPRIDE] yields TOTAL PROTEIN of 6.12

Query `Cn1c(=O)c2[nH]cnc2n(C)c1=O.O` yields TOTAL PROTEIN of 6.22

Further cases:
Query CN1[C@@H]2CC[C@H]1C[C@@H](OC(=O)C(CO)c1ccccc1)C2 (stereo partly drawn) yields TOTAL PROTEIN of 6.18

Query CC(C)(C)CC(C)(C)c1ccc(OCCOCC[N+](C)(C)Cc2ccccc2)cc1.[Cl-] [BENZETHONIUM CHLORIDE] yields TOTAL PROTEIN of 6.12

Query `Cc1ccc(NC(=O)c2ccc(CN3CCN(C)CC3)cc2)cc1Nc1nccc(-c2cccnc2)n1` yields TOTAL PROTEIN of 6.12
